# conditions: Crystal; DTA
property.measured: Normal melting temperature (°C)
The response must be a number in °C with no trailing unit.

QUERY: Returns the measured Normal melting temperature for the input compound. Input: Cc1ccc(N(c2ccc(C)cc2)c2cccc(C)c2)cc1
RESULT: 56.70

QUERY: Recorded Normal melting temperature for Cc1ccc(N(c2cccc(C)c2)c2cccc(C)c2)cc1 , please?
RESULT: 89.50

QUERY: Please look up its Normal melting temperature: Cc1ccc(N(c2ccc(C)cc2)c2ccc(C)cc2)cc1
RESULT: 115.59

QUERY: GET /values?readout=Normal melting temperature&item= Cc1cccc(N(c2cccc(C)c2)c2cccc(C)c2)c1
RESULT: 39.81

---

# conditions: Liquid; not specified, probably DSC
property.measured: Normal boiling temperature (°C)
Give just the number in °C; leave the unit off.

QUERY: Could you share which Normal boiling temperature value was measured for Cc1cccc(N(c2cccc(C)c2)c2cccc(C)c2)c1 [3-methyl-N,N-bis(3-methylphenyl)benzenamine] ?
RESULT: 294.84

QUERY: Reported Normal boiling temperature, compound Cc1ccc(N(c2cccc(C)c2)c2cccc(C)c2)cc1 [3-methyl-N-(3-methylphenyl)-N-(4-methylphenyl)benzenamine] : ____
RESULT: 274.1

QUERY: Data request, read-out Normal boiling temperature, for Cc1ccc(N(c2ccc(C)cc2)c2ccc(C)cc2)cc1 [tri-tolylamine]
RESULT: 300.89

QUERY: Entry under review: Cc1ccc(N(c2ccc(C)cc2)c2cccc(C)c2)cc1 [3-methyl-N,N-bis(4-methylphenyl)benzenamine] . Reported Normal boiling temperature?
RESULT: 315.94

---

# method.summary: Molar enthalpy of transition or fusion
# conditions: Crystal; DSC
I'd appreciate it if you could supply Molar enthalpy of transition or fusion values for the items below.
Give just the number in kcal/mol; leave the unit off.

QUERY: GET /values?readout=Molar enthalpy of transition or fusion&item= Cc1cccc(N(c2cccc(C)c2)c2cccc(C)c2)c1
RESULT: 3.12

QUERY: Requested read-out: Molar enthalpy of transition or fusion. Entry: Cc1ccc(N(c2ccc(C)cc2)c2ccc(C)cc2)cc1
RESULT: 4.77

QUERY: Please give the measured Molar enthalpy of transition or fusion for this compound: Cc1ccc(N(c2cccc(C)c2)c2cccc(C)c2)cc1
RESULT: 6.31

QUERY: Which Molar enthalpy of transition or fusion value is on record for Cc1ccc(N(c2ccc(C)cc2)c2cccc(C)c2)cc1 ?
RESULT: 5.19
